Assay: growth inhibition of wild-type E. coli BW25113 pool, dose response, OD615 (AID 635);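 also: growth measured after 20 h with compound at 37 °C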
Details: pooled mutant strains; at 100 µM (top of the series)
The whole screen tested about 1,300 compounds, of which about 40 (3%) were called active. Only a sample is shown. Measured potencies and affinities stand elsewhere.
Listing of recorded growth inhibition by entry.
assay_readout: growth inhibition (%)

{"columns": ["compound", "assay_readout", "recorded_value"],
 "data": [
  ["CCN(CCCNC(=O)c1[nH]c(C)c(C(C)=O)c1C)c1cccc(C)c1", "growth inhibition", 1.22],
  ["Cc1ccccc1OCCCN1C(=O)C(=O)c2cccc(C)c21", "growth inhibition", -1.21],
  ["N#Cc1c(NC(NC(=O)c2ccco2)C(=O)c2ccccc2)sc2c1CCCC2 (configuration not stated)", "growth inhibition", 1.57],
  ["CCOc1cc(S(=O)(=O)N2CCN(Cc3ccccc3)CC2)ccc1Br", "growth inhibition", -3.26],
  ["N=C(N)c1c(O)n(C2CCCCC2)c(=O)n(C2CCCCC2)c1=O", "growth inhibition", 3.33],
  ["N#Cc1c(N)oc(-c2ccc3c(c2)OCO3)c1-c1ccc2c(c1)OCO2", "growth inhibition", 1.41],
  ["Cc1ccc2c(c1)NC(=O)C(CC(=O)NCCCN1CCN(c3cc(Cl)ccc3C)CC1)O2 (configuration not stated)", "growth inhibition", 1.34],
  ["CCc1ccccc1N(C)C(=O)CCc1nc(-c2ccc(C)cc2)no1", "growth inhibition", -3.1],
  ["CCOc1cc(C)c(C(C)C)cc1S(=O)(=O)N1CC(C)OC(C)C1 (configuration not stated)", "growth inhibition", 3.51],
  ["Cc1ccc(C(C(=O)NC2CCCC2)N(Cc2cccs2)C(=O)CNC(=O)c2cccs2)o1 (configuration not stated)", "growth inhibition", 5.18],
  ["Cc1csc(NC(=O)c2cccc(Cn3nc(C)c(Br)c3C)c2)n1", "growth inhibition", 1.33],
  ["COC(=O)c1ccc(OC)c(CSc2nnc(COc3ccccc3)o2)c1", "growth inhibition", 0.08],
  ["OCCn1c(-c2ccc3c(c2)OCO3)csc1=Nc1ccccc1", "growth inhibition", -0.74],
  ["COC(=O)c1c(NC(=O)Cc2cccs2)sc2c1CCCC2", "growth inhibition", 4.36],
  ["CCOc1cccc(NC(=O)C2CC(=O)N(C)C(=Nc3cccc(F)c3)S2)c1 (configuration not stated)", "growth inhibition", -8.98],
  ["Cc1noc(C)c1S(=O)(=O)N(CCc1ccccc1)Cc1ccccc1", "growth inhibition", 3.25],
  ["Cc1ccc(S(=O)(=O)NCCSc2nnnn2-c2cc(C)ccc2C)cc1", "growth inhibition", 1.62],
  ["CN(C1CCCCC1)S(=O)(=O)c1ccc(NC(=O)c2ccc(Br)o2)cc1", "growth inhibition", -1.39],
  ["CCCn1nnc(NC(=O)COc2ccc(C3CCCCC3)cc2)n1", "growth inhibition", 6.61],
  ["Cc1ccccc1Cn1nc(C)c(NC(=O)c2noc3c2CCc2ccccc2-3)c1C", "growth inhibition", -4.26],
  ["CC1(C)CC(=O)C=C(NCCN2CCN(C(=O)Nc3ccc(Cl)c(Cl)c3)CC2)C1", "growth inhibition", 3.54],
  ["Cc1cccc(NC(=O)CSc2nnc(-c3cc(C)n(-c4ccccc4)c3C)o2)c1C", "growth inhibition", 0.15]
]}

---

Listing of recorded growth inhibition by entry.
Experiment: growth inhibition of wild-type E. coli BW25113 pool, dose response, OD615 (AID 635);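 also: growth measured after 20 h with compound at 37 °C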
Settings: pooled mutant strains; at 100 µM (top of the series)
About 40 (3%) of roughly 1,300 compounds were called active. Only a sample is shown. Entries with a potency or affinity are not part of this list.

{"columns": ["smiles_data", "growth inhibition (%)"],
 "data": [
  ["CCCCn1nc(NC(=O)c2cccs2)c2cc3ccccc3nc21", -3.62],
  ["O=c1c2c(nc3n1CCCCC3)-c1ccccc1CC21CCCC1", -5.17],
  ["COc1ccc2[nH]c(=O)c(CN(C(=O)NC3CCCCC3)C3CCCCC3)cc2c1", -1.14],
  ["Cc1ccc(C)c(N2CCN(C(=O)c3ccc(NS(=O)(=O)c4c(C)noc4C)cc3)CC2)c1", 3.98],
  ["Cn1cccc1C(=O)Nc1nc(-c2ccccn2)cs1", 1.36],
  ["COc1ccc(-c2[nH]ncc2Oc2ccccc2OC)c(O)c1", 7.41],
  ["COc1cccc(-c2cc(C(=O)N3CCc4ccccc4C3)no2)c1", -1.57],
  ["Clc1ccc(Cl)c(-c2nn3c(COc4ccccc4)nnc3s2)c1", 2.46],
  ["c1ccc(CCN2CCN(c3ncnc4c3cnn4-c3ccccc3)CC2)cc1", 6.43],
  ["Cc1[nH]n2c(=O)c3c(nc2c1-c1ccc(Cl)cc1)CCC3", -1.19],
  ["COc1cc(-c2nc(Cc3ccccc3Cl)no2)cc(OC)c1OC", -4.44]
]}

---

Listing of recorded growth inhibition by entry.
Test: growth inhibition of wild-type E. coli BW25113 pool, dose response, OD615 (AID 635);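 also: growth measured after 20 h with compound at 37 °C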
Settings: pooled mutant strains; at 100 µM (top of the series)
In all, about 1,300 compounds went through this assay and about 40 (3%) were called active. Only a sample is shown. Results with a measured potency or affinity are listed apart.

{"columns": ["compound", "growth inhibition, %"],
 "data": [
  ["Cc1cccc(Cc2c(C)nc3c(C(=O)NCc4ccco4)cnn3c2C)c1", -6.42],
  ["CCCCOc1ccc(S(=O)(=O)N2CCCCCC2)cc1", 3.61],
  ["Cc1c(NC(=O)Nc2ccc(Cl)c(Cl)c2)c(=O)n(-c2ccccc2)n1C", 1.5],
  ["Cc1cc(C)c(O)c(-c2cc(C(=O)Nc3ccc(S(=O)(=O)N4CCOCC4)cc3)[nH]n2)c1", 3.2],
  ["Cc1csc(SCC(=O)Nc2nc(-c3ccccc3)cs2)n1", 0.45],
  ["CCc1ccc2oc(=O)cc(CN(C)Cc3ccccc3)c2c1", 0.54],
  ["CN(Cc1ccccc1)C(=O)CSc1nc2ccccc2c(=O)n1Cc1ccco1", 4.9],
  ["CCCCN1C(=O)C2ON(c3ccccc3C)C(c3ccco3)C2C1=O (stereo unspecified)", 3.87],
  ["COCc1nnc(NC(=O)c2ccc(S(=O)(=O)N(C)C3CCCCC3)cc2)o1", 0.24],
  ["O=C(O)c1cc(Cl)c2ccccc2c1O", 9.52],
  ["Cc1ccc(Cl)cc1NC(=O)CC(O)(C(F)(F)F)C(F)(F)F", 15.3],
  ["Cc1noc(NS(=O)(=O)c2ccc(NC(=O)COc3ccc(Cl)cc3Cl)cc2)c1C", 2.59],
  ["C=CCn1c(SCC(=O)Nc2ccc3c(c2)CCC3)nnc1-c1cccs1", -0.97],
  ["COC(=O)c1cccc(-n2nnnc2SCC(=O)Nc2nc3c(s2)CCCC3)c1", -0.44],
  ["Clc1ccc(OCc2nc(-c3ccccn3)n[nH]2)cc1", 3.08],
  ["COc1ccccc1-c1noc(CCC(=O)Nc2cccc(C(F)(F)F)c2)n1", 9.08]
]}
